TARGET: Sodium-dependent serotonin transporter (Homo sapiens, UniProt P31645)
Sequence (P31645 whole entry, looked up): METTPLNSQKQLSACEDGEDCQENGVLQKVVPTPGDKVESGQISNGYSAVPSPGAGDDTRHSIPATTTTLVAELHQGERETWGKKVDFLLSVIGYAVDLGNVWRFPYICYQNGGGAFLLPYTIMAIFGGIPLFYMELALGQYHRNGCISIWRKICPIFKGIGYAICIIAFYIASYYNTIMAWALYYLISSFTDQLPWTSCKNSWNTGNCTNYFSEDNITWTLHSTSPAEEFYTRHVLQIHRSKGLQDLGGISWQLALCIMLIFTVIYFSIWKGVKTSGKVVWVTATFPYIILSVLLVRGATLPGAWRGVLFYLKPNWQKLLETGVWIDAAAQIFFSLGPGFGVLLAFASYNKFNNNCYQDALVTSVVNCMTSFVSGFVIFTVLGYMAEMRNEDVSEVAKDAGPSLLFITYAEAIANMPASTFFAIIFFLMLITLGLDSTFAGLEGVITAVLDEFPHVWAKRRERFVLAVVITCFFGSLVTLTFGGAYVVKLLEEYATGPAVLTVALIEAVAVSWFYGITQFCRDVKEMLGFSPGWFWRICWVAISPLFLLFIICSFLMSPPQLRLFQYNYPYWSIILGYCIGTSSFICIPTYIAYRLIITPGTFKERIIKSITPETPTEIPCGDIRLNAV
ASSAY SETUP: HEK293, at 10 µM
Description: Displacement of [3H]citalopram from human SERT expressed in HEK293 cells at 10 uM measured after 30 mins
VALUE KIND: inhibition

Worked examples, 2 compounds total:
>  <MOLECULE SMILES>
Cl.c1ccc(OCc2cc(N3CCNCC3)no2)cc1

>  <inhibition>
< 50%

$$$$
>  <MOLECULE SMILES>
Fc1ccccc1OCc1cc(OC[C@@H]2CCCN2)no1

>  <inhibition>
< 50%

$$$$

Return reported inhibition values for all items listed beneath this line.
1. CN(CCOc1cc(COc2ccccc2)on1)CC1CC1.Cl
2. CN(CCOc1cc(COc2ccccc2)on1)C1CCCCC1
3. Clc1ccccc1OCc1cc(OC[C@@H]2CCCN2)no1

Result block:
["< 50%", "< 50%", "> 50%"]

* * *

TARGET: Sodium-dependent dopamine transporter (Homo sapiens, UniProt Q01959)
Sequence (Q01959 whole entry): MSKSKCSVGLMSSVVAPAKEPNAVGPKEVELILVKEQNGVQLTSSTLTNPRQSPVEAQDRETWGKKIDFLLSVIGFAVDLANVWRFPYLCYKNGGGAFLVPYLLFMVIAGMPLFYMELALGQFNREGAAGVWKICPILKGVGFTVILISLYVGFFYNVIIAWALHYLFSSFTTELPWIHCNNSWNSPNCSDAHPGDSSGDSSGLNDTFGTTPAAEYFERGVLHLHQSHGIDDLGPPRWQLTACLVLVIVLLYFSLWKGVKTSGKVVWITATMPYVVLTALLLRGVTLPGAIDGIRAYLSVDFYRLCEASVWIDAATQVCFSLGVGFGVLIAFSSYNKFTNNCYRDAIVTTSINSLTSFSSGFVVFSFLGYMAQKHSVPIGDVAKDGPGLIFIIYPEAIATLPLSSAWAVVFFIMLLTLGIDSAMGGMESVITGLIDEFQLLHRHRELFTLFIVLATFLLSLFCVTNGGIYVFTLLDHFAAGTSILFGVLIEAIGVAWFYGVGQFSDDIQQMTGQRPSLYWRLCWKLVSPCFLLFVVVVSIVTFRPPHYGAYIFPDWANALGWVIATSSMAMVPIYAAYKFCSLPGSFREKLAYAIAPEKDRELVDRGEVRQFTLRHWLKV
PROTOCOL TEXT: Displacement of [3H]-WIN35428 from human DAT expressed in HEK293 cells at 10 uM measured after 30 mins
Format: cell-based
Kindly state inhibition for each of the entries shown.

Worked examples, 3 compounds total:
>  <MOLECULE SMILES>
Fc1ccccc1OCc1cc(OC[C@@H]2CCCN2)no1

>  <TARGET>
Sodium-dependent dopamine transporter (Homo sapiens, UniProt Q01959)

>  <ASSAY VALUE>
< 50%

$$$$
>  <MOLECULE SMILES>
CN(CCOc1cc(COc2ccccc2)on1)CC1CC1.Cl

>  <TARGET>
Sodium-dependent dopamine transporter (Homo sapiens, UniProt Q01959)

>  <ASSAY VALUE>
< 50%

$$$$
>  <MOLECULE SMILES>
Clc1ccccc1OCc1cc(OC[C@@H]2CCCN2)no1

>  <TARGET>
Sodium-dependent dopamine transporter (Homo sapiens, UniProt Q01959)

>  <ASSAY VALUE>
< 50%

$$$$

Return reported inhibition values for all items listed beneath this line.
1. CN(CCOc1cc(COc2ccccc2)on1)C1CCCCC1
2. Fc1ccc(C(OCCN2CCN(CCCc3ccccc3)CC2)c2ccc(F)cc2)cc1

Result block:
< 50%
> 50%

Query block: Need inhibition of Cl.c1ccc(OCc2cc(N3CCNCC3)no2)cc1 , thanks.
Result block: > 50%

* * *

PROTOCOL TEXT: AUC (0 to 8 hrs) in Kun Ming mouse plasma at 40 mg/kg, po by LC-MS/MS analysis
Type: ADME, organism-based
Design: time < 8 hr, dose 40 mg/kg, route oral
VALUE KIND: AUC(0-t) at 8 h (ng·h/mL)
Give bare numbers, in ng·h/mL.

Query block: Need AUC(0-t) at 8 h of CN(CCOc1cc(COc2ccccc2)on1)CC1CC1.Cl , thanks.
Result block: 108

* * *

PROTOCOL TEXT: Tmax in Kun Ming mouse brain at 40 mg/kg, po by LC-MS/MS analysis
Format: ADME, organism-based
VALUE KIND: Tmax (min)
Answers are plain numbers, in min.

Query block: Need Tmax of CN(CCOc1cc(COc2ccccc2)on1)CC1CC1.Cl , thanks.
Result block: 10

* * *

TARGET: Sigma non-opioid intracellular receptor 1 (Rattus norvegicus, UniProt Q9R0C9)
Sequence (Q9R0C9 whole entry): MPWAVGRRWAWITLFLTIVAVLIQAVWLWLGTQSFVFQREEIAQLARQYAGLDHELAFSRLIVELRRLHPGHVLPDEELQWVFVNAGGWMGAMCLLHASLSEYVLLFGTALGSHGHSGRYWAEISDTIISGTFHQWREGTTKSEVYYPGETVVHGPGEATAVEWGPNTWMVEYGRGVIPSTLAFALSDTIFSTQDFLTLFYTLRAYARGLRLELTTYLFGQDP
PROTOCOL TEXT: Displacement of [3H]-pentazocine from rat brain sigma1 receptor by PDSP assay
pKi: −log10 of the molar value.
Tick label 1 if pKi is 7 or greater. Tick label 0 if pKi is less than 7.

Past entries and their recorded results:
>  <MOLECULE SMILES>
COc1ccc(OCc2cc(OC[C@@H]3CCCN3)no2)cc1

>  <TARGET>
Sigma non-opioid intracellular receptor 1 (Rattus norvegicus, UniProt Q9R0C9)

>  <CLASSIFICATION>
label 0

$$$$
>  <MOLECULE SMILES>
Clc1ccc(OCc2cc(OC[C@@H]3CCCN3)no2)cc1

>  <TARGET>
Sigma non-opioid intracellular receptor 1 (Rattus norvegicus, UniProt Q9R0C9)

>  <CLASSIFICATION>
label 1

$$$$
>  <MOLECULE SMILES>
Clc1cccc(OCc2cc(OC[C@@H]3CCCN3)no2)c1.O=C(O)C(F)(F)F

>  <TARGET>
Sigma non-opioid intracellular receptor 1 (Rattus norvegicus, UniProt Q9R0C9)

>  <CLASSIFICATION>
label 1

$$$$
>  <MOLECULE SMILES>
CN1CCC[C@@H]1COc1cc(COc2ccccc2)on1

>  <TARGET>
Sigma non-opioid intracellular receptor 1 (Rattus norvegicus, UniProt Q9R0C9)

>  <CLASSIFICATION>
label 1

$$$$
>  <MOLECULE SMILES>
O=C(Oc1ccccc1)c1cc(OC[C@@H]2CCCN2)no1

>  <TARGET>
Sigma non-opioid intracellular receptor 1 (Rattus norvegicus, UniProt Q9R0C9)

>  <CLASSIFICATION>
label 0

$$$$

Proceed to the following item.
Query block: Would you say Clc1cccc(OCc2cc(N3CCNCC3)no2)c1 shows pKi at minimum 7?
Result block: label 1

* * *

TARGET: Sigma non-opioid intracellular receptor 1 (Rattus norvegicus)
PROTOCOL TEXT: Displacement of [3H]-pentazocine from rat brain sigma1 receptor by PDSP assay
VALUE KIND: Ki (nM)
Answers are plain numbers, in nM.

>  <MOLECULE SMILES>
CCN(C)CCOc1cc(COc2ccccc2)on1

>  <UNITS>
nM

>  <Ki>
18.4

$$$$
>  <MOLECULE SMILES>
NCCCOc1cc(COc2ccccc2)on1

>  <UNITS>
nM

>  <Ki>
2310

$$$$
>  <MOLECULE SMILES>
CN1CCN(c2cc(COc3ccccc3)on2)CC1

>  <UNITS>
nM

>  <Ki>
63.9

$$$$
>  <MOLECULE SMILES>
c1ccc(OCc2cc(OC[C@H]3CCCN3)no2)cc1

>  <UNITS>
nM

>  <Ki>
37.4

$$$$
>  <MOLECULE SMILES>
O=C(Nc1ccccc1)OCc1cc(OC[C@@H]2CCCN2)no1

>  <UNITS>
nM

>  <Ki>
299

$$$$

Return reported Ki values for all items listed beneath this line.
1. CN(CCOc1cc(COc2cccc(Cl)c2)on1)CC1CC1
2. CN(CCOc1cc(COc2cccc(F)c2)on1)C1CCCCC1
3. COc1cccc(OCc2cc(OC[C@@H]3CCCN3)no2)c1
4. CN(CCOc1cc(COc2ccccc2)on1)C1CCCCC1
5. Fc1ccc(OCc2cc(OC[C@@H]3CCCN3)no2)cc1
6. Cl.c1ccc(OCc2cc(N3CCNCC3)no2)cc1
7. NCCOc1cc(COc2ccccc2)on1
8. CN(CCOc1cc(COc2cccc(Cl)c2)on1)C1CCCCC1

Result block:
1: 1.1; 2: 0.5; 3: 31.1; 4: 0.3; 5: 4.4; 6: 5.3; 7: 63.9; 8: 0.5

Return reported Ki values for all items listed beneath this line.
1. CN1CCC[C@H]1COc1cc(COc2ccccc2)on1.Cl
2. c1ccc(OCc2cc(OCCN3CCOCC3)no2)cc1

Result block:
1. 3.4
2. 403

* * *

TARGET: Sigma non-opioid intracellular receptor 1 (Rattus norvegicus)
PROTOCOL TEXT: Displacement of [3H]-pentazocine from rat brain sigma1 receptor by PDSP assay
pKi: −log10 of the molar value.
VALUE KIND: pKi

Return reported pKi values for all items listed beneath this line.
1. Fc1ccccc1OCc1cc(OC[C@@H]2CCCN2)no1
2. c1ccc(OCc2cc(N3CCOCC3)no2)cc1
3. CN(C)CCOc1cc(COc2ccccc2)on1

Result block:
["8.21 to 8.22", "< 5.00", "< 5.00"]
